Where do the numbers come from? From the supplement of paper PMC10567573.

B1: KCNAB2 (parent)
chain: SSIIHEIDSILGNKPYSKKDYRS

- Variants of: B1
- Procedure Summary: protein stability index of a GFP-peptide fusion (GPS, HEK-293T) (PSI 1-6); higher = more stable;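 note: lentivirally expressed fusions sorted by FACS into six bins by GFP to DsRed ratio, PSI derived from sequencing read proportions per bin multiplied by bin number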
- Assay Conditions: c terminus: native
Please respond with reported protein stability index for every item in the list.
Give your answer as a number; write no unit.

IN: What value of protein stability index has been recorded for this entry: SSIIHEIDSILGNQPYSKKDYRS [K14Q]
OUT: 3.1

IN: What value of protein stability index has been recorded for this entry: SSIIHEIDSIMGNKPYSKKDYRS [L11M]
OUT: 4.04

IN: What value of protein stability index has been recorded for this entry: SSIIHEIDSQLGNKPYSKKDYRS [I10Q]
OUT: 4.47

IN: What value of protein stability index has been recorded for this entry: SSIIHEIDSILGAKPYSKKDYRS [N13A]
OUT: 2.14

IN: What value of protein stability index has been recorded for this entry: SSIIHECDSILGNKPYSKKDYRS [I7C]
OUT: 4.15

IN: What value of protein stability index has been recorded for this entry: SSIIHELDSILGNKPYSKKDYRS [I7L]
OUT: 2.86

IN: What value of protein stability index has been recorded for this entry: SSIIHEIDSILGNKPYIKKDYRS [S17I]
OUT: 3.54

IN: What value of protein stability index has been recorded for this entry: SSIIHEIDSILGNKPYSKKDYVS [R22V]
OUT: 3.12

IN: What value of protein stability index has been recorded for this entry: SSIFHEIDSILGNKPYSKKDYRS [I4F]
OUT: 1.29

IN: What value of protein stability index has been recorded for this entry: SSIIHEIDSILGNKPYSKKCYRS [D20C]
OUT: 2.01

IN: What value of protein stability index has been recorded for this entry: SSDIHEIDSILGNKPYSKKDYRS [I3D]
OUT: 4.67

IN: What value of protein stability index has been recorded for this entry: SMIIHEIDSILGNKPYSKKDYRS [S2M]
OUT: 1.98

IN: What value of protein stability index has been recorded for this entry: SSIIHEIDSILGNKPYSKKDKRS [Y21K]
OUT: 3.66

IN: What value of protein stability index has been recorded for this entry: SSIVHEIDSILGNKPYSKKDYRS [I4V]
OUT: 2.46

IN: What value of protein stability index has been recorded for this entry: SSIIHEIHSILGNKPYSKKDYRS [D8H]
OUT: 2.06

IN: What value of protein stability index has been recorded for this entry: SSYIHEIDSILGNKPYSKKDYRS [I3Y]
OUT: 3.17

IN: What value of protein stability index has been recorded for this entry: SKIIHEIDSILGNKPYSKKDYRS [S2K]
OUT: 1.66

IN: What value of protein stability index has been recorded for this entry: SSIIHHIDSILGNKPYSKKDYRS [E6H]
OUT: 2.31

IN: What value of protein stability index has been recorded for this entry: SSIIHEIDSSLGNKPYSKKDYRS [I10S]
OUT: 3.68

IN: What value of protein stability index has been recorded for this entry: SSIIHEIDSILGNKPYKKKDYRS [S17K]
OUT: 3.43

IN: What value of protein stability index has been recorded for this entry: SSIIHEIDSILGNKPYSKKDYRD [S23D]
OUT: 4.12

IN: What value of protein stability index has been recorded for this entry: SSIMHEIDSILGNKPYSKKDYRS [I4M]
OUT: 2.59

IN: What value of protein stability index has been recorded for this entry: SSIIHEIDSILGNKPYSHKDYRS [K18H]
OUT: 2.48

IN: What value of protein stability index has been recorded for this entry: SSIIHEIDSILGNKPYSKKDYCS [R22C]
OUT: 3.26

IN: What value of protein stability index has been recorded for this entry: SSIIHEIDSILGNKPVSKKDYRS [Y16V]
OUT: 3.26

IN: What value of protein stability index has been recorded for this entry: SSIIHEGDSILGNKPYSKKDYRS [I7G]
OUT: 4.45

IN: What value of protein stability index has been recorded for this entry: SSIIAEIDSILGNKPYSKKDYRS [H5A]
OUT: 3.83

IN: What value of protein stability index has been recorded for this entry: SSIIHEIDSILGNKPYFKKDYRS [S17F]
OUT: 3.2

IN: What value of protein stability index has been recorded for this entry: SSIIHEIDSILGNKPYSKKDYRK [S23K]
OUT: 4.33

IN: What value of protein stability index has been recorded for this entry: SSIIHEIDSILGNKPYSKLDYRS [K19L]
OUT: 3.58

IN: What value of protein stability index has been recorded for this entry: SSIIHLIDSILGNKPYSKKDYRS [E6L]
OUT: 3.25

IN: What value of protein stability index has been recorded for this entry: STIIHEIDSILGNKPYSKKDYRS [S2T]
OUT: 3.75

IN: What value of protein stability index has been recorded for this entry: SSIIHEIDSILGNKPYMKKDYRS [S17M]
OUT: 3.2

IN: What value of protein stability index has been recorded for this entry: SSIIHEIDSILGNKPYSKKMYRS [D20M]
OUT: 2.96

IN: What value of protein stability index has been recorded for this entry: SSIIHEIDSILGVKPYSKKDYRS [N13V]
OUT: 2.59
